assay: ATG_M_61_CIS: Attagene CIS-FACTORIAL HepG2 Assay for M61 Transcription Factor (Internal Marker) (AID 2282937); conditions: HepG2 Attagene CIS-FACTORIAL M61 internal marker reporter; actives raise or lower the signal
The source made the active and inactive calls. Rule for the calls: active = hit-call score of the fitted dose curve at least 0.9, where 1 is the maximum; inactive = score below 0.9.
PROPERTY_NAME: outcome

>  <COMPOUND>
CCCCC(CC)(CO)CO

>  <PROPERTY_NAME>
outcome

>  <MEAS_VALUE>
inactive

$$$$
>  <COMPOUND>
CCCCC(CC)C(=O)OC(C)C (stereo not drawn)

>  <PROPERTY_NAME>
outcome

>  <MEAS_VALUE>
inactive

$$$$
>  <COMPOUND>
CSc1c(Cl)c(Cl)c(Cl)c(Cl)c1Cl

>  <PROPERTY_NAME>
outcome

>  <MEAS_VALUE>
inactive

$$$$
>  <COMPOUND>
COC(=O)c1ccc(OC)cc1

>  <PROPERTY_NAME>
outcome

>  <MEAS_VALUE>
inactive

$$$$
>  <COMPOUND>
CN1C(=O)c2ccccc2C1=O

>  <PROPERTY_NAME>
outcome

>  <MEAS_VALUE>
inactive

$$$$
>  <COMPOUND>
C[C@H]1C[C@@H](O)CC(C)(C)C1

>  <PROPERTY_NAME>
outcome

>  <MEAS_VALUE>
inactive

$$$$

Note to self: outcome recorded for C=CCCC(=O)/C=C/C1C(C)=CCCC1(C)C (stereo not drawn) was inactive

Note to self: outcome recorded for OCCCCC(O)CO (stereo not drawn) was inactive
